In this section, each of the compounds is paired with its reported melting point.

# compound N#Cc1cccc(CN2CCN(c3ccc(NC(=O)c4ccccc4-c4cccc(C(F)(F)F)c4)cc3)CC2)c1 ; its melting point = 117 to 121 °C

---

observation_type: melting point

O=C(Nc1ccc(N2CCN(Cc3ccc(F)cc3)CC2)cc1)c1ccccc1-c1ccc(C(F)(F)F)cc1 [Example 52] = 198 to 200 °C
N#CCN1CCN(c2ccc(NC(=O)c3ccccc3-c3ccc(C(F)(F)F)cc3)cc2)CC1 [Example 41] = 244 to 246 °C
O=C(Nc1ccc(N2CCN(Cc3cc[nH]n3)CC2)cc1)c1ccccc1-c1ccc(C(F)(F)F)cc1 [Example 71] = 194 to 196 °C

Field: next compound
# compound COc1cccc(C(=O)Nc2ccc(N3CCN(Cc4cccc(C#N)c4)CC3)cc2)c1OCCC1CCCCC1 [Example 31] ; its melting point = 102 to 104 °C
